- TARGET ENTITY: T1, soluble KDR extracellular domain (ECD) (Calbiochem) (human, UniProt P35968 20-764)
- T1 construct: extracellular domain; Bought protein; also called KDR-ECD; VEGF Receptor 2 D1-7, Cat. #676490
- T1 sequence (P35968 20-764): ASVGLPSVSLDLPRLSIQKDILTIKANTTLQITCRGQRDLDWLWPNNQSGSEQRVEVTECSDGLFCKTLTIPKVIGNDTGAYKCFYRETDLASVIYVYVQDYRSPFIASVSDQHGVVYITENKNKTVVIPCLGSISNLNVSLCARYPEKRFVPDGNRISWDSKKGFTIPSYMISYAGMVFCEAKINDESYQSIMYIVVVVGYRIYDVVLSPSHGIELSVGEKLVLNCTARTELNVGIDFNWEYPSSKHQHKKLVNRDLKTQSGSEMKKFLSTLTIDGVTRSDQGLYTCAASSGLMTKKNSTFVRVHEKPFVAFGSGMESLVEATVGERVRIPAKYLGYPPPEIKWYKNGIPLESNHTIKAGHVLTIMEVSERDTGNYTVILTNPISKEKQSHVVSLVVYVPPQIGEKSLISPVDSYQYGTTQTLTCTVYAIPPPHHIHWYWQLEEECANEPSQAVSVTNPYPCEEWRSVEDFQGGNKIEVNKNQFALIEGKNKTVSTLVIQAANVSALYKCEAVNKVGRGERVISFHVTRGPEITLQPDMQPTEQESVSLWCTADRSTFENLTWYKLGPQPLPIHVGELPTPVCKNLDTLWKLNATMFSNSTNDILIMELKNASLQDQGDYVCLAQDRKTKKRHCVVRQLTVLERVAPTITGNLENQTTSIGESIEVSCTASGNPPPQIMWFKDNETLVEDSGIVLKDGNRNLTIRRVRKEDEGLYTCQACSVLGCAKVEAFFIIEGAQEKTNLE
- PROTOCOL: High Antigen ELISA, KDR coat 500 ng/mL, supernatant 1:675
Note to self: ELISA reading under 4 means class 1, ties and anything higher get class 0.

Completed entries (count: 7):
33B1 (antibody, V domains shown, Fully human mAb from XenoMouse hybridoma, tested as hybridoma supernatant) VH: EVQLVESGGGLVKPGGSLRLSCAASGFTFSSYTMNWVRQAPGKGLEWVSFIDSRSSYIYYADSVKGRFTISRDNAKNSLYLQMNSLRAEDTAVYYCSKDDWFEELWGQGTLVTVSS VL: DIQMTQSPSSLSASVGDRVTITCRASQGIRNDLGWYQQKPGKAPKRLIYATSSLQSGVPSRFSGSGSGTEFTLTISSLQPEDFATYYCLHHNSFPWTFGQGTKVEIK    class 1
22B8 (antibody, V domains shown, Fully human mAb from XenoMouse hybridoma, tested as hybridoma supernatant) VH: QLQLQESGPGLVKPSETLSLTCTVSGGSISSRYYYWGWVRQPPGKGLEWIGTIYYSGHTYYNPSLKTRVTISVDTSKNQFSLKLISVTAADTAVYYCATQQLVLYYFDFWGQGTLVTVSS VL: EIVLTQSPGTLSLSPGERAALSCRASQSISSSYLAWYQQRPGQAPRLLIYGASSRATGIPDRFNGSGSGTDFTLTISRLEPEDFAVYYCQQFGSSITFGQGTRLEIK    class 1
29F7 (antibody, V domains shown, Fully human mAb from XenoMouse hybridoma, tested as hybridoma supernatant) VH: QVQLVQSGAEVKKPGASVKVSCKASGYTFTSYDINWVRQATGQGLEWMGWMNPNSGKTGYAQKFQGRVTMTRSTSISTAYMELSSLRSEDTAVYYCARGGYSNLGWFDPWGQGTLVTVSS VL: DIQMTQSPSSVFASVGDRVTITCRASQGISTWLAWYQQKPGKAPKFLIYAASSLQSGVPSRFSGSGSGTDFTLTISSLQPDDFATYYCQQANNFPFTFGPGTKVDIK    class 1
1G6 (antibody, V domains shown, Fully human mAb from XenoMouse hybridoma, tested as hybridoma supernatant) VH: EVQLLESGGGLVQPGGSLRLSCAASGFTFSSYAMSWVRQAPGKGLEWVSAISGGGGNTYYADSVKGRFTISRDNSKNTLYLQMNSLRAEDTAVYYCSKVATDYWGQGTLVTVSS VL: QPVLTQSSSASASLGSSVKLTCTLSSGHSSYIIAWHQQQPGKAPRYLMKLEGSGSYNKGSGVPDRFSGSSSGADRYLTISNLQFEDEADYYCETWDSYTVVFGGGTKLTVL    class 1
33C3 (antibody, V domains shown, Fully human mAb from XenoMouse hybridoma, tested as hybridoma supernatant) VH: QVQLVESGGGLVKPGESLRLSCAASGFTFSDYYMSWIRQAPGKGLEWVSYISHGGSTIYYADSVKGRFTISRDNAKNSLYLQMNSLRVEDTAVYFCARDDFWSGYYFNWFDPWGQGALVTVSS VL: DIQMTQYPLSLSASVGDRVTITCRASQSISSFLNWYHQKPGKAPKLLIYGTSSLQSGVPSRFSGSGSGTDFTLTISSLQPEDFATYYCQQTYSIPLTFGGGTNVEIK    class 1
31E11 (antibody, V domains shown, Fully human mAb from XenoMouse hybridoma, tested as hybridoma supernatant) VH: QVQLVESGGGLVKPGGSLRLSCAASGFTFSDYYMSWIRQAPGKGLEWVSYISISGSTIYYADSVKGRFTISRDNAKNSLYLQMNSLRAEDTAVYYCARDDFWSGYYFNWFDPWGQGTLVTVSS VL: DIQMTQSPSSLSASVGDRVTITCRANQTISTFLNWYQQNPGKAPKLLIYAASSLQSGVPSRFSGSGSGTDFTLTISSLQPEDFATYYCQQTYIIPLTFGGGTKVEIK    class 1
33D5 (antibody, V domains shown, Fully human mAb from XenoMouse hybridoma, tested as hybridoma supernatant) VH: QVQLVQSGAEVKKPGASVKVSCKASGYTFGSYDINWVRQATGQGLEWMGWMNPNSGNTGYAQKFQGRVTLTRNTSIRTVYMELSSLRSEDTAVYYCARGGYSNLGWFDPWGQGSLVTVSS VL: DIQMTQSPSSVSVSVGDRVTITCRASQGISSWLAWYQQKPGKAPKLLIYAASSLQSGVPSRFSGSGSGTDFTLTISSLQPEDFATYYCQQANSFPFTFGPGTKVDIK    class 0

--- query ---
**Query** Does the reported ELISA reading of 32F4 (antibody, V domains shown, Fully human mAb from XenoMouse hybridoma, tested as hybridoma supernatant) VH: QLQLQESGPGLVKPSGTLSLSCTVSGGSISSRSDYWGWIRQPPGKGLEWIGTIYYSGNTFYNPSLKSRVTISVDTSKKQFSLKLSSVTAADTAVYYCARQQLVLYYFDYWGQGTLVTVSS VL: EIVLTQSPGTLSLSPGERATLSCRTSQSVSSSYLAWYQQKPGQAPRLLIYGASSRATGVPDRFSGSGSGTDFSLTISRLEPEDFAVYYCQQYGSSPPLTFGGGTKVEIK stay below 4?
**Result** class 0
